Listed compounds paired with reported PT
- Species: Rattus norvegicus
- Measurement Description: Open TG-GATES - Regimen: Single
- Format: toxicity, organism-based, Sprague-Dawley
- Set-up: regimen Single, gender Male, age 6 weeks
- Conditions: in vivo, po, 100 mg/kg, 6 h, tissue Blood, route gavage, dose level Low
Numeric only. Scale: s

Some compounds with known PT results, for comparison:
Query :: PT for "C[C@H](CS)C(=O)N1CCC[C@H]1C(=O)O" ?
Result :: 12.2

Query :: Field entry: "Clc1ccccc1CN1CCc2sccc2C1"
Result :: 12.3

Query :: Try "O=C(O)c1cc(/N=N/c2ccc(S(=O)(=O)Nc3ccccn3)cc2)ccc1O" next.
Result :: 12.7

Query :: Can you handle "O=C(O)c1cn(C2CC2)c2cc(N3CCNCC3)c(F)cc2c1=O" next?
Result :: 12.4

--- query ---
Query :: Fill blank: measured PT of the compound CCc1cc(C(N)=S)ccn1 [ETHIONAMIDE] is ____.
Result :: 13.4

###

- Species: Rattus norvegicus
- Measurement Description: Open TG-GATES - Regimen: Daily Repeat
- Assay type: toxicity, organism-based, Sprague-Dawley
- Parameters: regimen Daily Repeat, gender Male, age 6 weeks
- Conditions: in vivo, po, 0 mg/kg, […], tissue Plasma, route gavage, dose level Control, time 7 day
Value Kind: GLC (mg/dL)
Dear colleague, please return just the value in mg/dL, with no unit written.

Some solved cases for reference:
Query :: Given the compound NC(=O)N1c2ccccc2C=Cc2ccccc21 [CARBAMAZEPINE] , what is its reported GLC?
Result :: 218.2

Query :: Queued: "O=C(O)c1cc(/N=N/c2ccc(S(=O)(=O)Nc3ccccn3)cc2)ccc1O"
Result :: 233.6

Query :: Quick one: "CO[C@H]1/C=C/O[C@@]2(C)Oc3c(C)c(O)c4c(O)c(c(/C=N/N5CCN(C)CC5)c(O)c4c3C2=O)NC(=O)/C(C)=C\C=C\[C@H](C)[C@H](O)[C@@H](C)[C@@H](O)[C@@H](C)[C@H](OC(C)=O)[C@@H]1C"
Result :: 198.6

Query :: Entry "Cn1c(=O)c2[nH]cnc2n(C)c1=O.O" please
Result :: 212.2

More entries:
Query :: Reported GLC for "CCCC(CCC)C(=O)O" : what is it?
Result :: 223.2

###

- Species on record: Rattus norvegicus
- Measurement Description: Open TG-GATES - Regimen: Single
- Assay type: toxicity, organism-based, Sprague-Dawley
- Set-up: regimen Single, gender Male, age 6 weeks
- Conditions: in vivo, po, 100 mg/kg, 3 h, tissue Blood, route gavage, dose level Low
Value Kind: Plat (x10_4/uL)
Hi! Could you send only the number? It should be in x10_4/uL, unit omitted.

// solved cases for Plat follow
Query :: What measured Plat goes with "C[C@H](CS)C(=O)N1CCC[C@H]1C(=O)O" ?
Result :: 123.2

Query :: Another compound: "O=C(O)c1cn(C2CC2)c2cc(N3CCNCC3)c(F)cc2c1=O"
Result :: 104.3

Query :: Repeat with CCc1cc(C(N)=S)ccn1 [ETHIONAMIDE]
Result :: 119.3

Query :: And for "O=C(O)c1cc(/N=N/c2ccc(S(=O)(=O)Nc3ccccn3)cc2)ccc1O" ?
Result :: 129.8

More entries:
Query :: For the compound shown here, "Clc1ccccc1CN1CCc2sccc2C1" , give the reported Plat.
Result :: 117.9
